# Experimental System: Itk F434G/Δ429 (Itkas) (Homo sapiens, UniProt Q08881, DEL429-429/F435G)
Measured Quantity: IC50

Qu. State its IC50 for this compound: CC(C)(C)n1nc(Cc2cccc3ccccc23)c2c(N)ncnc21
Ans. ~50 nM

Source listed as paper PMC5730406.
